# METHOD SUMMARY: Metabolic stability in rat liver S9 fraction assessed as compound remaining after 60 mins
# Assay type: ADME, subcellular
# ASSAY SETUP: read-out: Activity
TEST READOUT: remaining at 1 h (%)

For orientation, consider the following solved cases.
C[C@@H]1CN(CC2(c3ccncc3)CCC2)CCN1S(=O)(=O)c1ccc(C(C)(O)C(F)(F)F)cc1 (stereo partly specified)
54
C[C@@H]1CN(CC2(c3cccnc3)CC2)CCN1S(=O)(=O)c1ccc(C(C)(O)C(F)(F)F)cc1 (stereo partly specified)
50
C[C@@H]1CN(CC(F)(F)c2ccncc2)CCN1S(=O)(=O)c1ccc(C(C)(O)C(F)(F)F)cc1 (stereo partly specified)
40
C[C@@H]1CN(CCc2ccccn2)CCN1S(=O)(=O)c1ccc(C(C)(O)C(F)(F)F)cc1 (stereo partly specified)
28
C[C@@H]1CN(CC2(c3cccnc3)CCCC2)CCN1S(=O)(=O)c1ccc(C(C)(O)C(F)(F)F)cc1 (stereo partly specified)
60
C[C@@H]1CN(CCc2cccnc2)CCN1S(=O)(=O)c1ccc(C(C)(O)C(F)(F)F)cc1 (stereo partly specified)
67
C[C@@H]1CN(CC2(c3cccnc3)CCC2)CCN1S(=O)(=O)c1ccc(C(C)(O)C(F)(F)F)cc1 (stereo partly specified)
61
C[C@@H]1CN(CC2(c3ccncc3)CCCC2)CCN1S(=O)(=O)c1ccc(C(C)(O)C(F)(F)F)cc1 (stereo partly specified)
43

(a) C[C@@H]1CN(CC2(c3ccncc3)CC2)CCN1S(=O)(=O)c1ccc(C(C)(O)C(F)(F)F)cc1 (stereo partly specified)
(b) C[C@@H]1CN(CC(F)(F)c2cccnc2)CCN1S(=O)(=O)c1ccc(C(C)(O)C(F)(F)F)cc1 (stereo partly specified)
Request: I'm curious, which of these has a smaller remaining at 1 h number: a or b ? Answer with the label corresponding to your selection.
Response: b
(b: 46%, a: 80%)
